# PROCEDURE TEXT: Determination of the equilibrium dampness
# Format: physicochemical
# COND: 24 hours at 23° C.; relative humidity at which neither expulsion nor retention of water is effected; lower is better
This listing pairs compounds with measured Equilibrium dampness.
Enter your answer as a number in % r.h.; do not include the unit.

Worked examples, 3 compounds total:
COMPOUND	Equilibrium dampness (% r.h.)
O=C(NCCO)OCCO	58
O=C1NC(CO)(CO)CO1 [Product H, 4,4-bis-hydroxymethyl-oxazolidine-2-one]	76
CC(O)CNC(=O)OCCO (centres unmarked)	58

Param item = CC1(C)COC(=O)N1 ; retrieve measured Equilibrium dampness.
83

Query (compound): O=C1OCCN1CCO [Product I, N-(2-hydroxyethyl)-oxazolidine-2-one] ; field requested: Equilibrium dampness
68

Data origin, for the record: patent US4382765A
